For each record, write down the corresponding dissociation percent.
Assay: In vitro dissociation of the water soluble taxane derivatives in blood plasma of rat
Format: in vitro ADME, SD rats
Conditions: 37° C., 5 min
Where a name gives a salt, the structure may show the parent alone.
Unit % implied. Number only.

What does the record list as dissociation percent for CO[C@H]1C(=O)[C@]2(C)[C@@H](OC)C[C@H]3OC[C@@]3(OC(C)=O)[C@H]2[C@H](OC(=O)c2ccccc2)[C@]2(O)C[C@H](OC(=O)[C@H](OC(=O)[C@H](F)CCN(C)C)[C@@H](NC(=O)OC(C)(C)C)c3ccccc3)C(C)=C1C2(C)C [Compound 07, hydrochloride] ? 89.6

What does the record list as dissociation percent for `CC(=O)O[C@H]1C(=O)[C@@]2(C)[C@H]([C@H](OC(=O)c3ccccc3)[C@]3(O)C[C@H](OC(=O)[C@H](OC(=O)[C@@H](F)CCN(C)C)[C@@H](NC(=O)c4ccccc4)c4ccccc4)C(C)=C1C3(C)C)[C@]1(OC(C)=O)CO[C@@H]1C[C@@H]2O.Cl` ? 95.6

* * *

Test system: human ovarian cancer SK-OV-3
Conditions: D22; 24 mg/kg (paclitaxel 16 mg/kg) D0-4 IV
measurement_kind: Tumor volume (D22)

What does the record list as Tumor volume (D22) for CC(=O)OC1C(=O)C2(C)C(O)CC3OCC3(OC(C)=O)C2C(OC(=O)c2ccccc2)C2(O)CC(OC(=O)C(OC(=O)C(CCCCN(C)C)C(F)F)C(NC(=O)c3ccccc3)c3ccccc3)C(C)=C1C2(C)C.O=S(=O)(O)O (stereo not drawn) ? 79.8 ± 12.8 mm^3

What does the record list as Tumor volume (D22) for CC(=O)OC1C(=O)C2(C)C(O)CC3OCC3(OC(C)=O)C2C(OC(=O)c2ccccc2)C2(O)CC(OC(=O)C(OC(=O)C(CCN(C)C)C(F)(F)F)C(NC(=O)c3ccccc3)c3ccccc3)C(C)=C1C2(C)C.Cc1ccc(S(=O)(=O)O)cc1 (stereo not drawn) ? 57.3 ± 11.4 mm^3

What does the record list as Tumor volume (D22) for CC(=O)O[C@H]1C(=O)[C@@]2(C)[C@H]([C@H](OC(=O)c3ccccc3)[C@]3(O)C[C@H](OC(=O)[C@H](O)[C@@H](NC(=O)c4ccccc4)c4ccccc4)C(C)=C1C3(C)C)[C@]1(OC(C)=O)CO[C@@H]1C[C@@H]2O [paclitaxel, reference compound] ? 53.7 ± 11.2 mm^3

What does the record list as Tumor volume (D22) for CC(=O)O[C@H]1C(=O)[C@@]2(C)[C@H]([C@H](OC(=O)c3ccccc3)[C@]3(O)C[C@H](OC(=O)[C@H](OC(=O)C(CCN(C)C)C(F)F)[C@@H](NC(=O)c4ccccc4)c4ccccc4)C(C)=C1C3(C)C)[C@]1(OC(C)=O)CO[C@@H]1C[C@@H]2O.Cl (stereo partly drawn) ? 61.2 ± 13.5 mm^3

What does the record list as Tumor volume (D22) for CC(=O)O[C@H]1C(=O)[C@@]2(C)[C@H]([C@H](OC(=O)c3ccccc3)[C@]3(O)C[C@H](OC(=O)[C@H](OC(=O)C(F)CCN(C)C)[C@@H](NC(=O)c4ccccc4)c4ccccc4)C(C)=C1C3(C)C)[C@]1(OC(C)=O)CO[C@@H]1C[C@@H]2O.CS(=O)(=O)O (stereo partly drawn) ? 50.6 ± 9.7 mm^3

What does the record list as Tumor volume (D22) for `CC(=O)O[C@H]1C(=O)[C@@]2(C)[C@H]([C@H](OC(=O)c3ccccc3)[C@]3(O)C[C@H](OC(=O)[C@H](OC(=O)[C@H](F)CCCN(C)C)[C@@H](NC(=O)c4ccccc4)c4ccccc4)C(C)=C1C3(C)C)[C@]1(OC(C)=O)CO[C@@H]1C[C@@H]2O.O=C(O)/C=C\C(=O)O` ? 70.8 ± 16.8 mm^3
